This listing pairs molecules with measured Plant response rating, Soybean.
Test system: soybean
Test: Test B pre/postemergence soybean
Assay type: in vivo, Glycine max
Details: Postemergence, Rate 500 g/ha; scale 0 to 10, 0 is no effect, 10 is complete control

molecule | Plant response rating, Soybean
CC(C)N(C(=O)n1oc(=O)n(C(C)C(=O)c2ccccc2)c1=O)c1ccc(Cl)cc1 (stereo not shown) | 2
C=C(Cn1c(=O)on(C(=O)N(c2ccccc2)C(C)C)c1=O)c1cccnc1 | 1
Cc1noc(C)c1Cn1c(=O)on(C(=O)N(c2ccc(Cl)cc2)C(C)C)c1=O | 1
CC(C)N(C(=O)n1oc(=O)n(CCCC(F)(F)F)c1=O)c1ccc(Cl)cc1 | 2
